# System name: G. pallida SER-7 (Globodera pallida, UniProt A0A183BS20, DEL280-286/G462A/H333Q/S454N/S6T/Y334H)
# Procedure summary: Cut head pharyngeal pumping assay, ser-7 (tm1325) expressing Gpa-ser-7
Observation type: EC50 (µM)
Answers are plain numbers, in µM.

Would you kindly share the measured EC50 for NCCc1c[nH]c2ccc(O)cc12 [serotonin, 5-hydroxytryptamine] ?
3.9
